Data provenance: patent US20170096461A1

Recorded measurements of peptide exchange yield, one per entry
target.desc: T1, HLA-A*02:01 (peptide-receptive MHC class I monomer after UV-ligand exchange) (human)
T1 construct: Monomers made with a UV-sensitive peptide that is cleaved by UV and exchanged for the test peptide; captured on streptavidin plates; also called MHC molecules
assay.remarks: UV-ligand exchange + anti-b2m ELISA; exchange yield grade: + >=10%, ++ >=20%, +++ >=50, ++++ >=75%
quantity.kind: peptide exchange yield

| binder | reported |
| --- | --- |
| GLSETILAV [peptide GLSETILAV (SEQ ID NO: 25)] | ≥ 75% |
| ALLVRLQEV [peptide ALLVRLQEV (SEQ ID NO: 116)] | ≥ 75% |
| FLDSLSPSV [peptide FLDSLSPSV (SEQ ID NO: 74)] | 50 to 75% |
| YQIDTVINL [peptide YQIDTVINL (SEQ ID NO: 23)] | 50 to 75% |
